# test method notes: Ketoprofen plasma levels achieved by on-knee patch delivery (Example 7)
# Format: in vivo, human
# condition context: human, plasma, topical, 136 mg, Mean Ketoprofen Plasma Concentration, Single Patch; time point 6 hrs; N = 22
measurement kind: concentration at 6 h (ng/mL)
Could you give me the number in ng/mL? Just the number is fine.

# concentration at 6 h of CC(C(=O)O)c1cccc(C(=O)c2ccccc2)c1 (stereo not shown) = 96.7

* * *

# test method notes: Ketoprofen plasma levels achieved by on-knee patch delivery (Example 7)
# Type: in vivo, human
# condition context: human, plasma, topical, 272 mg, Mean Ketoprofen Plasma Concentration, Two Patches; time point 4 hrs; N = 22
measurement kind: concentration at 4 h

# concentration at 4 h of CC(C(=O)O)c1cccc(C(=O)c2ccccc2)c1 (stereo not shown) = 89.2 ng/mL
